- assayText: MRT (0 to t) in Sprague-Dawley rat at 25 mg/kg, IG measured for 24 hrs by LC-MS/MS analysis
- Type: ADME, organism-based
- conditionParameters: in vivo, po
valueKind: MRT last at 24 h (h)
Numbers only, in h.

Which MRT last at 24 h reading was recorded for the compound O=c1cnc(Cc2ccccc2)nn1Cc1ccc(Cl)cc1Cl ? 8.4

---

- assayText: Metabolic stability in mouse liver microsomes assessed as half life
- Format: ADME, Microsome
valueKind: half-life (min)
Give bare numbers, in min.

O=c1cnc(-c2ccccc2)nn1Cc1ccccc1Cl | 10

// moving on: another record for half-life
If you can, please state the reported half-life value of O=c1cnc(-c2ccccc2)nn1C1CCCC1 . 6
